# Target under test: Integrin alpha-V/beta-3 (Homo sapiens) (UniProt P05106+P06756)
# Assay info: Inhibition of human alphaVbeta3 receptor expressed in african green monkey Vero E6 cells assessed as inhibition of SNV infection in cells at 1 uM by immunofluorescent assay
# Assay type: cell-based
Quantity kind: inhibition (%)
Answer with a number only, understood to be in %.

Worked examples, 2 molecules total:
| Molecule | Display unit | inhibition |
| --- | --- | --- |
| Cc1noc2ncnc(N3CCCC(C(=O)NCc4ccc5c(c4)OCO5)C3)c12 (stereo not given) | % | 3 |
| O=C(NCC1COc2ccccc2O1)C(Cc1ccccc1)NS(=O)(=O)c1ccc2nsnc2c1 (stereo not given) | % | 20 |

Record O=C(CSc1nc2ccsc2c(=O)n1-c1ccc(Cl)cc1)NCCc1ccc(Cl)cc1 , field inhibition: 11.4

Record CCOC(=O)N1CCN(C(=O)C(Cc2ccccc2)NS(=O)(=O)c2ccc3nsnc3c2)CC1 (stereo not given) , field inhibition: 4

Record CC(C)c1ccc(S(=O)(=O)c2nnn3c2nc(NC(C)c2ccccc2)c2sccc23)cc1 (stereo not given) , field inhibition: 8

====

Measured inhibition, listed per entry for reference.
# Target under test: Integrin alpha-V/beta-3 (Homo sapiens) (UniProt P05106+P06756)
# Assay info: Inhibition of human alphaVbeta3 receptor expressed in african green monkey Vero E6 cells assessed as inhibition of SNV infection in cells at 1 uM by immunofluorescent assay
# Assay type: cell-based
Answer with a number only, understood to be in %.

Worked examples, 4 compounds total:
| Compound | Target under test | inhibition, % |
| --- | --- | --- |
| CCCN(CCC)CCNC(=O)C(Cc1ccccc1)NS(=O)(=O)c1cccc2nsnc12 (stereo not given) | Integrin alpha-V/beta-3 (Homo sapiens) (UniProt P05106+P06756) | 34 |
| C/C=C/C(=O)NC(=S)NNC(=O)C(Oc1ccccc1)Oc1ccccc1 | Integrin alpha-V/beta-3 (Homo sapiens) (UniProt P05106+P06756) | 16.1 |
| Cc1cccc(NC(=O)C(Cc2ccccc2)NS(=O)(=O)c2cccc3nsnc23)n1 (stereo not given) | Integrin alpha-V/beta-3 (Homo sapiens) (UniProt P05106+P06756) | 17.7 |
| Cc1cc(C)cc(-n2c(=O)c3sccc3n(CC(=O)N3CCN(c4ccccc4)CC3)c2=O)c1 | Integrin alpha-V/beta-3 (Homo sapiens) (UniProt P05106+P06756) | 2.2 |

Moving on to another compound below.
Record COc1cccc(CNC(=O)C(Cc2ccccc2)NS(=O)(=O)c2cccc3cccnc23)c1 (stereo not given) , field inhibition: 0.8

====

# Target under test: Integrin alpha-V/beta-3 (Homo sapiens) (UniProt P05106+P06756)
# Assay info: Inhibition of human […] alphaVbeta3 expressed in african green monkey Vero E6 cells assessed as inhibition of Hantaan 76/118 viral entry at 1 mM
# Type: cell-based
The source made the active and inactive calls. The rule behind the calls is not given here.

| Compound | Target under test | inhibition |
| --- | --- | --- |
| O=C(NCc1ccc2c(c1)OCO2)C(Cc1ccccc1)NS(=O)(=O)c1cccc2cccnc12 (racemic) | Integrin alpha-V/beta-3 (Homo sapiens) (UniProt P05106+P06756) | Active |
| O=c1c(/C=N/Cc2ccco2)c(CSc2ccc(Cl)cc2)[nH]n1-c1nc2ccccc2s1 | Integrin alpha-V/beta-3 (Homo sapiens) (UniProt P05106+P06756) | Active |
| O=C(NCc1cccs1)C(Cc1ccccc1)NS(=O)(=O)c1ccc2nsnc2c1 (racemic) | Integrin alpha-V/beta-3 (Homo sapiens) (UniProt P05106+P06756) | Active |
| CC(C)[C@@H]1NC(=O)[C@H](Cc2ccccc2)NC(=O)[C@H]2CCCN2C(=O)[C@@H](N)CSSC[C@@H](C(=O)O)NC1=O | Integrin alpha-V/beta-3 (Homo sapiens) (UniProt P05106+P06756) | Active |
